All values here come from PubChem BioAssay (EPA / NIEHS).

Assay: ATG_Sox_CIS: Attagene CIS-FACTORIAL HepG2 Assay for human SRY-box transcription factor (SOX) (AID 2282960)
Conditions: HepG2 Attagene cis-factorial SOX reporter, mRNA; actives raise or lower the signal
Method: ATG_CIS is a cell-based, multiplexed-readout assay that uses HepG2, a human liver cell line, with measurements taken at 24 hours after chemical dosing in a 24-well plate.ATG_Sox_CIS is one of 52 assay component(s) measured or calculated from the ATG_CIS assay. […] This assay endpoint, ATG_Sox_CIS, was analyzed with bidirectional fitting relative to DMSO as the negative control and baseline of activity. […]
Active and inactive are the calls of the source. How the source made its calls: active means hit-call score of the fitted dose curve at least 0.9, where 1 is the maximum; inactive means score below 0.9.
result type: outcome

Worked cases, outcome given:
1. CCc1nccnc1C = inactive
2. C[C@]12CCC(=O)C=C1CC[C@@H]1[C@@H]2C(=O)C[C@@]2(C)[C@H]1CC[C@]2(O)C(=O)CO = inactive
3. NC(=O)OCC(COC(N)=O)c1ccccc1 = inactive
4. CC(=O)Oc1ccc(C)cc1 = inactive
5. COC(=O)c1ccc2cc(C(=O)OC)ccc2c1 = inactive

List outcome for every entry below, keeping the order given.
1. O=C(O)C(c1ccc(Cl)cc1)c1ccc(Cl)cc1
2. CCN(CCO)c1cccc(C)c1
3. COc1c2ccoc2cc2oc(=O)ccc12
4. CCCNC(=O)NS(=O)(=O)c1ccc(Cl)cc1
5. COC(=O)C1=C(C)NC(C)=C(C(=O)OCC(C)C)C1c1ccccc1[N+](=O)[O-] (stereo not drawn)
6. CCCCC/C=C\CCC=O

A)
inactive
inactive
inactive
inactive
inactive
inactive

List outcome for every entry below, keeping the order given.
1. O=C(O)CC(C(=O)O)C(CC(=O)O)C(=O)O (stereo not drawn)
2. COc1cc(NC(=O)CC(C)=O)c(OC)cc1Cl

A)
["inactive", "inactive"]

* * *

Experiment: ATG_TAL_CIS: Attagene CIS-FACTORIAL HepG2 Assay for human TAL Basal Promoter (AID 2282966);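 further: background control endpoint measuring basal TAL promoter reporter mRNA not a specific factor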
Conditions: HepG2 Attagene cis-factorial TAL promoter reporter; actives raise or lower the signal
Activity calls are given as the source filed them. The calls were made as follows: active = hit-call score of the fitted dose curve at least 0.9, where 1 is the maximum; inactive = score below 0.9.
Please reply with one of these outcomes: active, inactive

1. Nc1ccc2cc3ccccc3cc2c1 = inactive
2. CC=CC(=O)N(CC)c1ccccc1C = inactive
3. NC(=O)NNC(N)=O = inactive
4. CC(C)C1=CC2=CC[C@@H]3[C@](C)(CCC[C@@]3(C)C(=O)O)[C@H]2CC1 = active
5. COc1ccc([C@@H]2CC(=O)c3c(O)cc(O[C@@H]4O[C@H](CO[C@@H]5O[C@@H](C)[C@H](O)[C@@H](O)[C@H]5O)[C@@H](O)[C@H](O)[C@H]4O)cc3O2)cc1OC = inactive
6. CCc1c(C(=O)O)c(=O)cnn1-c1ccc(Cl)cc1 = inactive
7. CCCCCCCCCCCCCCCC[n+]1ccccc1 = inactive
8. N#[N+]c1ccc2c(S(=O)(=O)[O-])cccc2c1O = inactive
9. CCC(C)C=O (configuration not stated) = inactive
10. O=CN1CCCCC1 = inactive

Q) Please share the test call associated with `CCOc1nc(F)cc2nc(S(=O)(=O)Nc3c(Cl)cccc3C(=O)OC)nn12` .
A) inactive

Q) Please share the test call associated with `O=c1c2ccccc2nnn1CCl` .
A) inactive

* * *

Molecular target: Heat shock factor protein 1 (Homo sapiens)
Test: ATG_HSE_CIS: Attagene CIS-FACTORIAL HepG2 Assay for human Heat Shock Transcription Factor 1 (HSE) (AID 2282953)
Conditions: HepG2 HSE cis-reporter, Attagene RNA transcription; actives raise or lower the signal
Calls of active or inactive are those of the source. The calls were made as follows: active = hit-call score of the fitted dose curve at least 0.9, where 1 is the maximum; inactive = score below 0.9.
result type: AC50

Worked cases, AC50 given:
1. O=C(O)c1ccccc1Nc1cccc(C(F)(F)F)c1 = inactive
2. Cc1ccc(C(C)c2ccc(C)c(C)c2)cc1C = 100 µM (active)
3. O=C(c1ccccc1)C1CCC1 = inactive
4. CC(C)(C)c1ccc(N)cc1 = inactive

List AC50 for every entry below, keeping the order given.
1. O=P(O)(O)Oc1ccccc1
2. CC(C)c1ccc(C=O)cc1
3. COc1c2ccoc2cc2oc(=O)ccc12
4. Nc1ccc2cc3ccccc3cc2c1
5. CCCCCCOC(=O)C(C)CC (stereo not given)

A)
1: inactive; 2: inactive; 3: inactive; 4: inactive; 5: inactive

* * *

Read-out: Collagen IV, COL4A1 (gene 1282)
Experiment: BSK_MyoF_CollagenIV: BioMAP Diversity Plus: MyoF Assay for Collagen IV Biomarker Activity (AID 2284247)
Conditions: primary human lung fibroblasts
Active and inactive are the calls of the source. The calls were made as follows: active = hit-call score of the fitted dose curve at least 0.9, where 1 is the maximum; inactive = score below 0.9.
Please reply with one of these outcomes: Yes = active, No = inactive

# count of solved cases: 6
1. c1ccc2c(c1)ccc1ncccc12 = No
2. S=C(NC1CCCCC1)NC1CCCCC1 = No
3. N#[N+]c1ccc2c(S(=O)(=O)[O-])cccc2c1O = No
4. C=CCOc1c(Br)cc(Br)cc1Br = Yes
5. O=C(Nc1ccccc1SSc1ccccc1NC(=O)c1ccccc1)c1ccccc1 = No
6. C=CC=CC=CCCCCC = No

Q) Please share the test call associated with `CCO[Si](CCCN=C=O)(OCC)OCC` .
A) No

Q) Please share the test call associated with `O=Nc1ccc(O)cc1` .
A) No

Q) Please share the test call associated with CC1OC1C1CCC2(C)OC2C1 (configuration not stated) .
A) No

Q) Please share the test call associated with `CC(C)(c1cc(Br)c(OCCO)c(Br)c1)c1cc(Br)c(OCCO)c(Br)c1` .
A) Yes

Q) Please share the test call associated with `CCOc1nc(F)cc2nc(S(=O)(=O)Nc3c(Cl)cccc3C(=O)OC)nn12` .
A) No

Q) Please share the test call associated with `c1ccc2c(c1)ccc1cc3c(ccc4ccccc43)cc12` .
A) No

* * *

Test: ATG_BRE_CIS: Attagene CIS-FACTORIAL HepG2 Assay for human Bone Morphogenetic Protein (BMP) Response Element (BRE) (AID 2282933)
Conditions: HepG2 BMP response element reporter, Attagene transcription factor profiling; actives raise or lower the signal
The source made the active and inactive calls. The calls were made as follows: active = hit-call score of the fitted dose curve at least 0.9, where 1 is the maximum; inactive = score below 0.9.
Please reply with one of these outcomes: true for active, false for inactive

# count of solved cases: 3
1) C=C(C)C(=O)OCCO = false
2) c1ccc2c(c1)ccc1ncccc12 = true
3) CCCCCC/C=C\CCCCCCCC(=O)O = false

Proceed to the following item.
Q) Please share the test call associated with `C=C1[C@H]2CC[C@@H]3[C@H]2C(C)(C)CCC[C@]13C` .
A) false

* * *

Target: Estrogen receptor (Homo sapiens)
Experiment: CCTE_Deisenroth_AIME_384WELL_LUC_Active: CCTE's 384-well Estrogen Receptor Transactivation Assay with AIME metabolic competence (ERTA luciferase; metabolism positive), Deisenroth Lab (AID 2284030)
Records with an inconclusive call do not appear. Calls of active or inactive are those of the source. Rule for the calls: active = hit-call score of the fitted dose curve at least 0.9, where 1 is the maximum; inconclusive = response in the unintended direction; inactive = score below 0.9.
Please reply with one of these outcomes: Yes (active), No (inactive)

# count of solved cases: 3
1. OC1CCCC1 = No
2. CC1=NN(c2cc(S(=O)(=O)O)ccc2Cl)C(=O)C1N=Nc1ccccc1 (centres undefined) = No
3. Cc1ccc(C(C)c2ccc(C)c(C)c2)cc1C = Yes

Q) Please share the test call associated with `O=S(=O)(O)c1ccccc1C=Cc1ccc(-c2ccc(C=Cc3ccccc3S(=O)(=O)O)cc2)cc1` .
A) No

Q) Please share the test call associated with CC=C1CC2C=CC1C2 (centres undefined) .
A) No

* * *

Assay: BSK_3C_SRB: Viability Assessment in the BioMAP Diversity Plus: 3C Assay (AID 2283023);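 further: cells read 24 h after compound dosing; fitted both ways against DMSO so a hit may be signal rise or drop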
Conditions: primary human endothelial cells (HUVEC)
The source made the active and inactive calls. The calls were made as follows: active = hit-call score of the fitted dose curve at least 0.9, where 1 is the maximum; inactive = score below 0.9.
Please reply with one of these outcomes: active, inactive

1. c1ccc2c(c1)ccc1cc3c(ccc4ccccc43)cc12 = inactive
2. C=CCOCC(O)CCl (stereo not drawn) = inactive

Q) Please share the test call associated with `CCCCC/C=C\C/C=C\CCCCCCCC(=O)OC` .
A) inactive

Q) Please share the test call associated with `O=C(Nc1ccccc1SSc1ccccc1NC(=O)c1ccccc1)c1ccccc1` .
A) inactive

Q) Please share the test call associated with `CCCCCCCCCCCCCCCC[N+](C)(C)CC` .
A) active

Q) Please share the test call associated with `O=C1CCCN1CCO` .
A) inactive

Q) Please share the test call associated with C#CC1(O)CC[C@H]2[C@@H]3CCC4=CCCC[C@@H]4[C@H]3CC[C@@]21C (stereo partly drawn) .
A) active

* * *

Read-out: Monokine induced gamma interferon (MIG), CXCL9 (gene 4283)
Assay: BSK_CASM3C_MIG: BioMAP Diversity Plus: CASM3C Assay for Monokine induced gamma interferon (MIG) Biomarker Activity (AID 2283048);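 further: MIG protein level measured by ELISA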
Settings: primary human coronary artery smooth muscle cells; actives raise or lower the signal
Activity calls are given as the source filed them. Rule for the calls: active = hit-call score of the fitted dose curve at least 0.9, where 1 is the maximum; inactive = score below 0.9.
Please reply with one of these outcomes: Yes = active, No = inactive

1) CCCCCCCCCCCCCCCC[N+](C)(C)CC = Yes
2) C=CC(=O)OCC(Br)CBr (configuration not stated) = Yes
3) O=C1CCCN1CCO = No
4) CCCCC(CC)COCC1CO1 (configuration not stated) = No
5) CCCCCCCCc1ccc(Nc2ccc(CCCCCCCC)cc2)cc1 = No

Q) Please share the test call associated with CCCCC(CC)COC(=O)c1ccccc1O (configuration not stated) .
A) No

Q) Please share the test call associated with `O=Nc1ccc(O)cc1` .
A) No

Q) Please share the test call associated with `O=C(Cl)c1cc(C(=O)Cl)cc(C(=O)Cl)c1` .
A) Yes

Q) Please share the test call associated with C=CCOCC(O)CCl (configuration not stated) .
A) No

Q) Please share the test call associated with `O=c1c2ccccc2oc2ccccc12` .
A) No

Q) Please share the test call associated with `CO[Si](OC)(OC)c1ccccc1` .
A) No

Q) Please share the test call associated with `O=C(Nc1ccccc1SSc1ccccc1NC(=O)c1ccccc1)c1ccccc1` .
A) No

Q) Please share the test call associated with CN1C(=O)N(C)C(O)C1O (configuration not stated) .
A) No

Q) Please share the test call associated with `CC(C)(c1cc(Br)c(OCCO)c(Br)c1)c1cc(Br)c(OCCO)c(Br)c1` .
A) No

Q) Please share the test call associated with `C=CC=CC=CCCCCC` .
A) No

Q) Please share the test call associated with CC1OC1C1CCC2(C)OC2C1 (configuration not stated) .
A) No

Q) Please share the test call associated with `S=C(NC1CCCCC1)NC1CCCCC1` .
A) No

Q) Please share the test call associated with `c1ccc2c(c1)ccc1ncccc12` .
A) No

Q) Please share the test call associated with `c1ccc2c(c1)ccc1cc3c(ccc4ccccc43)cc12` .
A) No

Q) Please share the test call associated with `N#[N+]c1ccc2c(S(=O)(=O)[O-])cccc2c1O` .
A) No

Q) Please share the test call associated with C#CC1(O)CC[C@H]2[C@@H]3CCC4=CCCC[C@@H]4[C@H]3CC[C@@]21C (some centres not stated) .
A) Yes

Q) Please share the test call associated with `COc1ccc2nc(N)sc2c1` .
A) No
